The reported numbers originate from the Deep4Chem optical property database.

# Procedure Summary: solvent given as SMILES
# Assay Conditions: in ClC(Cl)Cl
absorption maximum vs 400 nm: at or above is fulfilled, below is not fulfilled.

1. CC(C)(C)c1ccc2c(c1)c1cc(C(C)(C)C)ccc1n2-c1ccc(-c2nc(-c3ccc(P(=O)(c4ccccc4)c4ccccc4)cc3)nc(-c3ccc(P(=O)(c4ccccc4)c4ccccc4)cc3)n2)cc1
fulfilled

Say whether COc1ccc(C2=[N+]3C(=Nc4c(-c5ccccc5)c(Br)c(-c5ccc(OC)cc5)n4[B-]3(F)F)C(c3ccccc3)=C2Br)cc1 shows absorption maximum of 400 nm or more. fulfilled

Can you check F[B-]1(F)OC(c2ccc(Br)cc2)=Cc2c3ccccc3c3ccccc3[n+]21 next? fulfilled

Can you check CN1CCN(c2ccc3c4c(cccc24)C(=O)c2ccccc2-3)CC1 next? fulfilled

Can you check COc1ccc(-c2oc3cccc4c5c(-c6ccc(OC)c(OC)c6)/c(=N/S(=O)(=O)C(F)(F)F)oc6cccc(c2c34)c65)cc1OC next? fulfilled

Can you check Cc1cc(=O)oc2cc3c(cc12)c1c2ccccc2c2ccccc2c1c1c2ccccc2c2ccccc2c31 next? not fulfilled

Can you check CCCCCCCCCCCCC1(CCCCCCCCCCCC)c2cc(-c3ccc(C=C4C(=O)c5ccccc5C4=O)cc3)ccc2-c2ccc(-c3ccc(C=C4C(=O)c5ccccc5C4=O)cc3)cc21 next? fulfilled

Can you check c1ccc2c(c1)oc1nc3oc4ccc(-n5c6ccccc6c6ccccc65)cc4c3cc12 next? not fulfilled

Can you check CCCCCCC(CCCCCC)n1c(=O)c2c3ccc4cccc5c6cccc7ccc(c2c1=O)c(c76)c3c45 next? not fulfilled

Can you check Cc1nc2c(ccc3c2sc(/C=C/c2ccc(-n4c5ccccc5c5ccccc54)cc2)[n+]3C)s1 next? fulfilled

Can you check CC1=C(Cc2ccccc2)C(C)=[N+]2C1=C(C)c1c(C)c(-c3csc(N4CCOCC4)n3)c(C)n1[B-]2(F)F next? fulfilled

Can you check CCCN1c2ccccc2Sc2cc(/C=C\c3cc(=O)oc4ccc(C)cc34)ccc21 next? fulfilled

Can you check COc1ccc(C2=c3sc(-c4ccc(OC)cc4)cc3=[N+]3C2=Nc2c(-c4ccc(OC)cc4)c4sc(-c5ccc(OC)cc5)cc4n2[B-]3(F)F)cc1 next? fulfilled

Can you check CC(C)(C)c1ccc2c(c1)c1cc(C(C)(C)C)ccc1n2-c1ccccc1-c1nc(-c2ccccc2P(=O)(c2ccccc2)c2ccccc2)nc(-c2ccccc2P(=O)(c2ccccc2)c2ccccc2)n1 next? not fulfilled

Can you check COc1ccc(-n2nc(C(=O)N3CCCC3)c(N3CCCC3)n2)cc1 next? not fulfilled

Can you check CN1CCCc2cc(C3=Cc4cccc[n+]4[B-](F)(F)O3)ccc21 next? fulfilled

Can you check O=CC1=Cc2cocc2C=C(C=O)C1 next? not fulfilled

---

# Procedure Summary: solvent given as SMILES
# Assay Conditions: in C1CCOC1
hey, just use condition met if measured absorption maximum is less than 400 nm, otherwise condition not met

1. Cc1ccc(C2=C3C=CC(/C=C/c4ccccc4)=[N+]3[B-](F)(F)n3c(/C=C/c4ccccc4)ccc32)cc1
condition not met
2. CCC1(CC)c2ccccc2-c2c1c1c(c3c2C(CC)(CC)c2cc(/C=C/c4cccs4)ccc2-3)C(CC)(CC)c2cc(/C=C/c3cccs3)ccc2-1
condition met
3. CCCCCCCCN1c2ccc(C#Cc3cc(C(F)(F)F)cc(C(F)(F)F)c3)cc2Sc2cc(C=O)ccc21
condition met
4. CC1=C(Cc2ccccc2)C(C)=[N+]2C1=C(C)c1c(C)c(-c3csc(N4CCOCC4)n3)c(C)n1[B-]2(F)F
condition not met
5. Cc1ccc(C2CC(c3ccc(O)cc3)=NN2c2ccc(S(N)(=O)=O)cc2)cc1 (stereo not drawn)
condition met
6. COc1ccc(-c2cnc3nn4ccccc4c3c2)cc1
condition met

I wonder whether CN(C)c1ccc(-c2nc3cnccc3[nH]2)cc1 has absorption maximum below 400 nm. Can you tell? condition met

---

// reported absorption maximum for each item listed
# Procedure Summary: solvent given as SMILES
# Assay Conditions: in C1CCOC1
The reply should be a number in nm, with the unit left off.

Request the reported absorption maximum associated with CC1(C)c2ccccc2N(c2ccc3c(ccc4nc5ccc6cc(N7c8ccccc8C(C)(C)c8ccccc87)ccc6c5nc43)c2)c2ccccc21 416

Can you check COc1ccc([C@@H]2C[C@](O)(c3ccccn3)C[C@](O)(c3ccccn3)[C@H]2C(=O)c2ccc(N(c3ccccc3)c3ccccc3)cc2)cc1 next? 366

Can you check F[Si-](F)(c1c2ccccc2cc2ccccc12)(c1c2ccccc2cc2ccccc12)c1c2ccccc2cc2ccccc12 next? 392

Can you check COc1ccc(/N=N/c2c(O)c3ccccc3n(C)c2=O)c(S(=O)(=O)O)c1 next? 449

---

# Procedure Summary: solvent given as SMILES
# Assay Conditions: in C1CCOC1
// reported absorption maximum for each item listed
The reply should be a number in nm, with the unit left off.

Would you please look over these solved cases?
1. COc1cc2c(cc1-c1ccc(Cl)cc1)Cc1c3c(c4c(c1-2)-c1cc(OC)c(-c2ccc(Cl)cc2)cc1C4)C(=O)N(CCC(C)C)C3=O
406
2. CC1(C)c2cc(/C=C/c3nc(/C=C/c4ccc5c(c4)C(C)(C)c4cc(N(c6ccccc6)c6ccc7ccccc7c6)ccc4-5)nc(/C=C/c4ccc5c(c4)C(C)(C)c4cc(N(c6ccccc6)c6ccc7ccccc7c6)ccc4-5)n3)ccc2-c2ccc(N(c3ccccc3)c3ccc4ccccc4c3)cc21
403
3. Cc1cc(C2(c3cc(C)c(O)c(Br)c3)OS(=O)(=O)c3ccccc32)cc(Br)c1O
396

Request the reported absorption maximum associated with CSc1sc(C(=O)c2ccccc2)c2nn[nH]c(=O)c12 396.5

---

# Procedure Summary: solvent given as SMILES
# Assay Conditions: in O
Quantity Name: absorption maximum (nm)
The reply should be a number in nm, with the unit left off.

1. CN(C)c1ccc(/C=C/c2nc3ccccc3s2)cc1
402
2. F[B-]1(F)N(c2ccccc2)C=Cc2cccc[n+]21
396

Lab note: next molecule to report on.
Request the reported absorption maximum associated with CC[N+]1(CC)CN2C(=N1)C(C(=O)O)=Cc1cc(OC)c(OC)cc12 392

---

// reported absorption maximum for each item listed
# Procedure Summary: solvent given as SMILES
# Assay Conditions: in c1ccccc1
The reply should be a number in nm, with the unit left off.

1) CCOC(=O)c1sc2nc3c(c(C#N)c2c1N)CCCCCC3
410
2) Cc1ccc(C(=O)/C=C/c2ccc(N(C)C)cc2)cc1
404

Request the reported absorption maximum associated with O=c1oc2ccc3ccccc3c2nc1-c1ccc(Cl)cc1 404

Can you check CN(C)c1ccc2nc(-c3ccc(C(=O)Nc4ccccc4)cc3)sc2c1 next? 392

---

# Procedure Summary: solvent given as SMILES
# Assay Conditions: in CO
// reported absorption maximum for each item listed
The reply should be a number in nm, with the unit left off.

Would you please look over these solved cases?
1) Cn1c(=O)c(/N=N/c2ccc(Nc3ccccc3)c(S(=O)(=O)O)c2)c(O)c2ccccc21
400
2) CN(C)c1ccc2nc(-c3ccc(C(=O)OC(C)(C)C)cc3)sc2c1
393
3) O=C1c2ccccc2-c2c(-c3cc(Br)ccc3O)[nH]c(=O)n21
400
4) CCOC(=O)c1ccc(O)c(-c2[nH]c(=O)n3c2-c2ccccc2C3=O)c1
395

Lab note: next compound to report on.
Request the reported absorption maximum associated with COc1cc(C=O)cc(-c2[nH]c(=O)n3c2-c2ccccc2C3=O)c1O 398

---

# Procedure Summary: solvent given as SMILES
# Assay Conditions: in C1CCOC1
Quantity Name: absorption maximum (nm)
The reply should be a number in nm, with the unit left off.

1) COC(=O)c1c2ccccc2nc2ccccc12
361

Lab note: next compound to report on.
Request the reported absorption maximum associated with O=C1c2ccc3c4ccc5c6c(ccc(c7ccc(c2c37)C(=O)N1c1ccc(O)cc1)c64)C(=O)N(c1ccc(O)cc1)C5=O 519

---

# Procedure Summary: solvent given as SMILES
# Assay Conditions: in ClCCl
Quantity Name: absorption maximum (nm)
The reply should be a number in nm, with the unit left off.

Would you please look over these solved cases?
1) CC(C)(C)c1ccc2c(c1)c1cc(C(C)(C)C)ccc1n2-c1ccccc1-c1nc(-c2ccccc2-n2c3ccc(C(C)(C)C)cc3c3cc(C(C)(C)C)ccc32)nc(-c2ccccc2P(=O)(c2ccccc2)c2ccccc2)n1
343.17
2) CCOC(=O)/N=c1/oc2c(OC)cccc2cc1C#N
374
3) COCCOCCOCCOCC(COCCOCCOCCOC)Oc1cc(/C=C/c2ccc(/C=C(\C#N)c3ccc(C(F)(F)F)cc3)cc2)c(OC(COCCOCCOCCOC)COCCOCCOCCOC)cc1/C=C/c1ccc(/C=C(\C#N)c2ccc(C(F)(F)F)cc2)cc1
439

Request the reported absorption maximum associated with O=[N+]([O-])c1ccc(C#Cc2ccc([N+](=O)[O-])cc2)cc1 335

Can you check Cc1cccc(C)c1N1C(c2ccccc2)=Cc2ccc3ccccc3[n+]2[B-]1(F)F next? 447

Can you check CCCCn1c(-c2ccc(-c3nnc(-c4ccc(-c5nc6c7ccccc7c7ccccc7c6n5CCCC)cc4)o3)cc2)nc2c3ccccc3c3ccccc3c21 next? 366

Can you check N#Cc1ccc(-n2c(-c3ccc(-c4ccc(-c5nc6c7ccccc7c7ccccc7c6n5-c5ccc(C#N)c6ccccc56)c5ccccc45)c4ccccc34)nc3c4ccccc4c4ccccc4c32)c2ccccc12 next? 336

Can you check COc1ccc([C@@H]2C[C@](O)(c3ccccn3)C[C@](O)(c3ccccn3)[C@H]2C(=O)c2ccc(N(c3ccccc3)c3ccccc3)cc2)cc1 next? 370

Can you check CCC1=C(C)C2=C(/C=C/c3ccc([N+](=O)[O-])cc3)c3c(C)c(CC)c(/C=C/c4ccc(OC)cc4)n3[B-](F)(F)[N+]2=C1/C=C/c1ccc(OC)cc1 next? 666

Can you check C(#Cc1ncnc2ccccc12)c1ccc(N(c2ccccc2)c2ccccc2)cc1 next? 411

Can you check Cc1nc2cc(/C=C/c3ccc(N(C)C)cc3)ccc2nc1-c1ccccc1 next? 407

Can you check Cc1ccc(-n2c(-c3ccc(N(c4ccc(-c5ccc(N(c6ccc(-c7nc8c9ccccc9c9ccccc9c8n7-c7ccc(C)cc7)cc6)c6ccc(-c7nc8c9ccccc9c9ccccc9c8n7-c7ccc(C)cc7)cc6)cc5)cc4)c4ccc(-c5nc6c7ccccc7c7ccccc7c6n5-c5ccc(C)cc5)cc4)cc3)nc3c4ccccc4c4ccccc4c32)cc1 next? 376

Can you check N#Cc1cc(/C=C/c2ccc(N(c3ccccc3)c3ccccc3)cc2)ccc1/C=C/c1ccc(/C=C/c2ccc(N(c3ccccc3)c3ccccc3)cc2)cc1C#N next? 447

Can you check C#CC1CN2CCC1CC2[C@@H](O)c1ccnc2ccc(OC)cc12 (stereo partly specified) next? 333

Can you check F[B-]1(F)n2c(c3cccc4cccc2c43)=Nc2cccc[n+]21 next? 438

Can you check CC(C)(C)OC(=O)/C=C/C1=CC2=C(c3ccccc3)c3cccn3[B-](F)(F)[N+]2=C1 next? 538

Can you check c1cnc(-c2c3ccccc3c(-c3cncnc3)c3ccccc23)nc1 next? 394

Can you check CCN(CC)c1ccc2c(c1)oc(=O)c1c(C)nc3c(c(-c4ccccc4)nn3C)c12 next? 408

Can you check O=C(c1ccc2c3c(cccc13)-c1cccc3c1C2CC=C3)c1c(Cc2ccccc2)c2ccc3cccc4c5cccc6ccc1c(c65)c2c34 (stereo unspecified) next? 467

Can you check CC(C)(C)c1ccc(-c2cc(-c3ccc(-c4cc(-c5ccc(C(C)(C)C)cc5)c(C#N)s4)s3)sc2C#N)cc1 next? 392

Can you check COC(=O)[C@H](Cc1ccccc1)Nc1c(C(C)=O)c(=O)oc2cc(N(C)C)ccc12 next? 373

Can you check O=P(c1ccccc1)(c1ccccc1)c1cccc(-n2c(-c3ccccc3P(=O)(c3ccccc3)c3ccccc3)nc3ccccc32)c1 next? 300

Can you check Clc1ccccc1N1c2sc3ccccc3c2Sc2sc3ccccc3c21 next? 314

Can you check CCCCCCn1c(=O)c2c3[nH]c4cc5sc6c([nH]c5cc4sc3c3c(=O)n(CCCCCC)c(=O)c3c2c1=O)c1c(=O)n(CCCCCC)c(=O)c1c1c(=O)n(CCCCCC)c(=O)c61 next? 549

Can you check Cc1ccccc1-c1c2ccc(=[N+]3CCOCC3)cc-2oc2cc(N3CCCCC3)ccc12 next? 559

Can you check CN(C)c1ccc(C#Cc2cc(C#Cc3ccc(N(C)C)cc3)c3ccc4c(C#Cc5ccc(C(F)(F)F)cc5)cc(C#Cc5ccc(N(C)C)cc5)c5ccc2c3c54)cc1 next? 506
